# ASSAY METHOD TEXT: Stability in cryopreserved hepatocytes, human
# CONDITION INFO: human
Use 0.6 µmol·min/L as the dividing line for AUC, with the line itself on the true side and lower values as false.

- CCCCCC(CCC1C(O)CC2Cc3c(cccc3OCC(=O)O)CC21)OC(=O)c1ccc(O)c(O)c1 (centres unmarked) [LXVI]: true
- CCCCCC(CCC1C(O)CC2Cc3c(cccc3OCC(=O)O)CC21)OCCC (centres unmarked) [XLVI]: true
- CCCCCC(CCC1C(O)CC2Cc3c(cccc3OCC(=O)O)CC21)OC(=O)N1CCC(O)CC1 (centres unmarked) [LVIII]: false
- CCCCCC(CCC1C(O)CC2Cc3c(cccc3OCC(=O)O)CC21)OCc1oc(=O)oc1C (centres unmarked) [LI]: true
- CCCCCC(CCC1C(O)CC2Cc3c(cccc3OCC(=O)O)CC21)OC(N)=O (centres unmarked) [XLII]: true

----------
# ASSAY METHOD TEXT: Stability in cryopreserved hepatocytes, dog
OBSERVATION TYPE: Trep Concentration (μM) 0 min

- CCCCCC(CCC1C(O)CC2Cc3c(cccc3OCC(=O)O)CC21)OC(=O)CCC(=O)O (centres unmarked) [XX]: 0 µM
- CCCCCC(CCC1C(O)CC2Cc3c(cccc3OCC(=O)O)CC21)OC(=O)COc1ccc(OC(F)(F)F)cc1 (centres unmarked) [LXIV]: 0.0196 µM
- CCCCCC(CCC1C(O)CC2Cc3c(cccc3OCC(=O)O)CC21)OC(=O)COc1ccc(O)cc1 (centres unmarked) [LIV]: 0.00351 µM
- CCCCCC(CCC1C(O)CC2Cc3c(cccc3OCC(=O)O)CC21)OC(=O)C1CCCN1 (centres unmarked) [XXXVI]: 0 µM
- CCCCCC(CCC1C(O)CC2Cc3c(cccc3OCC(=O)O)CC21)OP(=O)(O)O (centres unmarked) [VI]: 0.0124 µM
- CCCCCC(CCC1C(O)CC2Cc3c(cccc3OCC(=O)O)CC21)OC(=O)C(N)CCCCN (centres unmarked) [XXXV]: 0 µM
- CCCCCC(CCC1C(O)CC2Cc3c(cccc3OCC(=O)O)CC21)OC(=O)c1ccccc1O (centres unmarked) [LXI]: 0 µM
- CCCCCC(CCC1C(O)CC2Cc3c(cccc3OCC(=O)O)CC21)OC (centres unmarked) [XLV]: 0 µM
- CCCCCC(CCC1C(OC(=O)CC)CC2Cc3c(cccc3OCC(=O)O)CC21)OC(=O)CC (centres unmarked) [Prodrug LXX, treprostinil dipropionate]: 0.0959 µM
- CCCCCC(CCC1C(O)CC2Cc3c(cccc3OCC(=O)O)CC21)OC(=O)CO (centres unmarked) [XLIV]: 0.0501 µM
- CCCCCC(CCC1C(O)CC2Cc3c(cccc3OCC(=O)O)CC21)OC(=O)CC (centres unmarked) [LV]: 0.124 µM
- CCCCCC1CCC2C(CC3Cc4c(cccc4OCC(=O)O)CC32)OP(=O)(Oc2ccccc2)O1 (mixture of isomers) [XXVIII]: 0 µM
- CCCCCC(CCC1C(O)CC2Cc3c(cccc3OCC(=O)O)CC21)OCC (centres unmarked) [XLVII]: 0 µM
- CCCCCC(CCC1C(O)CC2Cc3c(cccc3OCC(=O)O)CC21)Oc1ccccc1C(=O)O (centres unmarked) [LVI]: 0 µM
- CCCCCC(CCC1C(O)CC2Cc3c(cccc3OCC(=O)O)CC21)OC(=O)CCC(=O)N1CCOCC1 (centres unmarked) [XXXIII]: 0 µM
- CCCCC[C@H]1CC[C@@H]2[C@H]3Cc4cccc(OCC(=O)O)c4C[C@H]3C[C@H]2OC(=O)O1 [XXIV]: 0.0779 µM
- CCCCCC(CCC1C(O)CC2Cc3c(cccc3OCC(=O)O)CC21)OC(=O)C(C)(C)C (centres unmarked) [XLIX]: 0 µM
